Assay: chemical genetic growth profiling, strain panel (AID 1159580);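 also: tested at 20 µM; growth read once vehicle control cultures reached saturation at 30 °C; 1 = growth at the plate median or of vehicle wells; lower values mean less growth of the strain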
Measurement Setup: S. cerevisiae deletion strains, growth OD, locus YJL092W, strain hpr5, hits give low values
Out of some 5,500 compounds screened, about 2,000 (36%) were called active. Roughly 18% stayed inconclusive and do not appear here. The list shows a part of the results.
Parameter: normalized growth
Respond numerically, and do not add a unit to the figure.

Reference set, count: 3
>  <Compound>
CN(C)CCOc1ccc(/C(=C(/CCCl)c2ccccc2)c2ccccc2)cc1

>  <normalized growth>
0.0832

$$$$
>  <Compound>
NCC(O)c1ccc(O)cc1 (stereo not given)

>  <normalized growth>
1.01

$$$$
>  <Compound>
CC(C)NCC(O)c1ccc(O)c(O)c1 (stereo not given)

>  <normalized growth>
0.985

$$$$

Return normalized growth for the following compound: Nc1ncnc2c1ncn2C1O[C@H](COP(=O)(O)O)[C@@H](O)[C@H]1O (stereo not given in full) 1

Quick one: give measured normalized growth for O=C1O[C@H](C(O)CO)C(O)=C1O (stereo not given in full) 0.988

// fetch normalized growth given entry C=CC(C)(O)CC/C=C(\C)CCC=C(C)C (stereo not given) 0.965

Answer with the recorded normalized growth for the compound listed here: C=C(C)C1CC=C(CO)CC1 (stereo not given) 0.938

Specify reported normalized growth for the compound shown: O=c1[nH]c(=O)n(C2C[C@@H](O)[C@@H](CO)O2)cc1F (stereo not given in full) 0.971

Give the reported value of normalized growth for this record: Oc1c(Br)cc(Br)c2cccnc12 0.0584

Please report the measured normalized growth for NC[C@H](O)c1ccc(O)c(O)c1 1

###

# Lookup of reported normalized growth keyed by entry
Assay: chemical genetic growth profiling, strain panel (AID 1159580)
Measurement Setup: S. cerevisiae deletion strains, growth OD, locus YBR229C, strain ROT2, hits give low values
Screen size: about 5,500 compounds; about 2,000 (36%) were called active. Inconclusive results (about 18%) are left out. The list shows a part of the results.
Please give the numeric answer without any surrounding text.

>  <Molecule>
CO[C@H]1/C=C/O[C@@]2(C)Oc3c(C)c(O)c4c(O)c(c(/C=N/N5CCN(C)CC5)c(O)c4c3C2=O)NC(=O)/C(C)=C\C=C\C(C)[C@H](O)[C@@H](C)[C@@H](O)[C@@H](C)[C@@H](OC(C)=O)[C@@H]1C (stereo partly specified)

>  <normalized growth>
1

$$$$
>  <Molecule>
Nc1ncnc2c1ncn2C1C[C@H](O)[C@@H](CO)O1 (stereo partly specified)

>  <normalized growth>
0.962

$$$$

Fill in normalized growth for record CCN(CC)CCOc1ccc(/C(=C(\Cl)c2ccccc2)c2ccccc2)cc1 0.0488

Output normalized growth of O=C1C=CC2=C3c4cc(O)c(O)cc4C[C@@]3(O)COC2=C1 0.998

###

Assay: chemical genetic growth profiling, strain panel (AID 1159580)
Measurement Setup: S. cerevisiae deletion strains, growth OD, locus YNL322C, strain KRE1 (second series), hits give low values
About 2,000 (36%) of roughly 5,500 compounds were called active. Another 18% or so got no clear call; they are omitted. The list shows a part of the results.
Parameter: normalized growth
Give the figure by itself; no unit, no explanation.

Before answering, review these 6 worked examples.
>  <Molecule>
COC(=O)C[C@H]1C(C)(C)C(=O)[C@@H]2CC3=C4CC(=O)O[C@@H](c5ccoc5)[C@]4(C)CCC3[C@@]1(C)C2=O (stereo not given in full)

>  <normalized growth>
0.996

$$$$
>  <Molecule>
CCCCC(CC)CN1CN(CC(CC)CCCC)CC(C)(N)C1 (stereo not given)

>  <normalized growth>
0.0601

$$$$
>  <Molecule>
CN(C)CCOC(C)(c1ccccc1)c1ccccn1 (stereo not given)

>  <normalized growth>
1.01

$$$$
>  <Molecule>
O=C(O)c1ccccc1Nc1ccccc1

>  <normalized growth>
0.871

$$$$
>  <Molecule>
O=[N+]([O-])c1ccc(O)c([N+](=O)[O-])c1

>  <normalized growth>
0.651

$$$$
>  <Molecule>
CCOP(=S)(OCC)SCn1c(=O)oc2cc(Cl)ccc21

>  <normalized growth>
0.958

$$$$

Please list normalized growth recorded for the molecule CCN(CC)CCOc1ccc(/C(=C(\Cl)c2ccccc2)c2ccccc2)cc1 1.02

Specify measured normalized growth for O=C1C=CC2=C3c4cc(O)c(O)cc4CC3(O)COC2=C1O (stereo not given) . 1.05

Return the recorded normalized growth value; entry: CN(C)CCOc1ccc(/C(=C(/CCCl)c2ccccc2)c2ccccc2)cc1 0.433

Supply reported normalized growth belonging to this molecule: Cc1c(Nc2ncccc2C(=O)O)cccc1C(F)(F)F 0.97

###

Assay: chemical genetic growth profiling, strain panel (AID 1159580);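 also: tested at 20 µM; growth read once vehicle control cultures reached saturation at 30 °C; 1 = growth at the plate median or of vehicle wells; lower values mean less growth of the strain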
Measurement Setup: S. cerevisiae deletion strains, growth OD, locus YNL298W, strain CLA4, hits give low values
The campaign covered roughly 5,500 compounds. About 2,000 (36%) were called active. Another 18% or so got no clear call; they are omitted. This is one part of the list.
Parameter: normalized growth
Give a plain numeric answer without units written out.

Sample records with normalized growth:
>  <Molecule>
O=[N+]([O-])c1ccc(O)c([N+](=O)[O-])c1

>  <Measured Value>
0.251

$$$$
>  <Molecule>
O=C1CCCC2C3CC(CN12)[C@@H]1CCCCN1C3 (some centres not stated)

>  <Measured Value>
1

$$$$
>  <Molecule>
CCCCC1(COC(=O)CCC(=O)O)C(=O)N(c2ccccc2)N(c2ccccc2)C1=O

>  <Measured Value>
1.01

$$$$
>  <Molecule>
C=CC(C1=CC(=O)C(OC)=CC1=O)c1ccc(O)cc1 (configuration not stated)

>  <Measured Value>
0.961

$$$$
>  <Molecule>
C=CC(C1=CC(=O)C(OC)=CC1=O)c1ccccc1 (configuration not stated)

>  <Measured Value>
0.919

$$$$

Entry C=C[C@@H](C1=CC(=O)C(OC)=C(OC)C1=O)c1ccccc1 needs its normalized growth filled in; supply it. 0.925

Entry C/C=C/c1ccc2c(c1)OCO2 needs its normalized growth filled in; supply it. 1.01

###

Assay: chemical genetic growth profiling, strain panel (AID 1159580);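 also: tested at 20 µM; growth read once vehicle control cultures reached saturation at 30 °C; 1 = growth at the plate median or of vehicle wells; lower values mean less growth of the strain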
Measurement Setup: S. cerevisiae deletion strains, growth OD, locus YJL164C, strain tpk1
In all, about 5,500 compounds went through this assay and about 2,000 (36%) were called active. Not shown: some 18% with an inconclusive outcome. Cut-off read from the data, not from the text of the source: active = normalized growth mostly below about 0.91 (no sharp cut-off); inconclusive = no clear call, values can overlap the other calls; inactive = mostly above about 0.92. The list shows a part of the results.
Bench note: report the call from 1 (yes) = active, 0 (no) = inactive

Some solved entries appear below for comparison.
>  <Molecule>
O=C(O)c1ccccc1Nc1ccccc1

>  <Class Assignment>
0 (no)

$$$$
>  <Molecule>
CO[C@H]1/C=C/O[C@@]2(C)Oc3c(C)c(O)c4c(O)c(c5c(nc6cc(C)ccn65)c4c3C2=O)NC(=O)/C(C)=C\C=C\[C@H](C)[C@H](O)[C@@H](C)C(O)[C@@H](C)[C@H](OC(C)=O)[C@@H]1C (stereo partly specified)

>  <Class Assignment>
0 (no)

$$$$
>  <Molecule>
COc1c2c(cc3c1OCO3)CCN(C)C2

>  <Class Assignment>
0 (no)

$$$$
>  <Molecule>
C=C[C@@H](C1=CC(=O)C(OC)=C(OC)C1=O)c1ccccc1

>  <Class Assignment>
1 (yes)

$$$$
>  <Molecule>
COc1ccccc1OCCNCC(O)COc1cccc2[nH]c3ccccc3c12 (stereo unspecified)

>  <Class Assignment>
0 (no)

$$$$
>  <Molecule>
CC(C)=CCC/C(C)=C/CC/C(C)=C/CC/C(C)=C/CC/C(C)=C/CC/C(C)=C/CC/C(C)=C/CC/C(C)=C/CC/C(C)=C/CO

>  <Class Assignment>
0 (no)

$$$$

Fill in: this test's call for O=C(NC(=O)c1c(F)cccc1F)Nc1ccc(Cl)cc1 is ___ 0 (no)

###

Assay: chemical genetic growth profiling, strain panel (AID 1159580);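 also: tested at 20 µM; growth read once vehicle control cultures reached saturation at 30 °C; 1 = growth at the plate median or of vehicle wells; lower values mean less growth of the strain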
Measurement Setup: S. cerevisiae deletion strains, growth OD, locus YJL168C, strain set2, hits give low values
The whole screen tested about 5,500 compounds, of which about 2,000 (36%) were called active. Not shown: some 18% with an inconclusive outcome. The list shows a part of the results.
Each entry below carries its reported normalized growth.
Lab note: record just the number, no unit beside it.

>  <Compound>
CCCCC1(COC(=O)CCC(=O)O)C(=O)N(c2ccccc2)N(c2ccccc2)C1=O

>  <Parameter>
normalized growth

>  <Measured Value>
1

$$$$
>  <Compound>
COc1cc(C(=O)NCc2ccc(OCCN(C)C)cc2)cc(OC)c1OC

>  <Parameter>
normalized growth

>  <Measured Value>
0.979

$$$$
>  <Compound>
CC(C)(C)NC[C@@H](O)COc1nsnc1N1CCOCC1

>  <Parameter>
normalized growth

>  <Measured Value>
0.984

$$$$
>  <Compound>
CC(=O)NCCCCCC(=O)O

>  <Parameter>
normalized growth

>  <Measured Value>
0.986

$$$$
>  <Compound>
CCCC1O[C@@H]2CC3C4CCC5=CC(=O)C=CC5(C)C4[C@@H](O)CC3(C)[C@]2(C(=O)CO)O1 (stereo partly specified)

>  <Parameter>
normalized growth

>  <Measured Value>
1.02

$$$$
>  <Compound>
CCCCC(CC)CN1CN(CC(CC)CCCC)CC(C)(N)C1 (stereo unspecified)

>  <Parameter>
normalized growth

>  <Measured Value>
0.826

$$$$
>  <Compound>
Oc1ccc(Cl)c2cccnc12

>  <Parameter>
normalized growth

>  <Measured Value>
0.0636

$$$$
>  <Compound>
NCC(CC(=O)O)c1ccc(Cl)s1 (stereo unspecified)

>  <Parameter>
normalized growth

>  <Measured Value>
0.996

$$$$
>  <Compound>
CCCCC1=NC2(CCCC2)C(=O)N1Cc1ccc(-c2ccccc2-c2nn[nH]n2)cc1

>  <Parameter>
normalized growth

>  <Measured Value>
0.993

$$$$
>  <Compound>
O=C(O[C@@H]1Cc2c(O)cc(O)cc2O[C@@H]1c1cc(O)c(O)c(O)c1-c1c([C@H]2Oc3cc(O)cc(O)c3C[C@H]2O)cc(O)c(O)c1O)c1cc(O)c(O)c(O)c1

>  <Parameter>
normalized growth

>  <Measured Value>
0.934

$$$$

Proceed to the following item.
Using the record for O=C(O)CCC(=O)C(=O)O , state its measured normalized growth. 1.01
